System: 188146-221-R-J1-PDC complex spheroid viability
measurement_description: Anticancer human tumor 188146-221-R-J1-PDC patient-derived colon adenocarcinoma cell line growth inhibition [POLQ]
measurement_context: second compound 0.316 µM; first compound 0.0316 µM; hits give low values
measured_attribute: viability, T/C

[
  {
    "compound": "C#Cc1c(F)ccc2cc(O)cc(-c3ncc4c(N5CC6CCC(C5)N6)nc(OCC56CCCN5CC(F)C6)nc4c3F)c12 (stereo not given) + Nc1ccc(C#CCN(C(=O)Cc2ncc(C(F)(F)F)cc2C(F)(F)F)c2ccc(F)cc2)nn1",
    "assay_system": "188146-221-R-J1-PDC complex spheroid viability",
    "reading": "103%"
  },
  {
    "compound": "O=c1[nH]cc(F)c(=O)[nH]1 + COC1C(OC(N)=O)C(O)C(Oc2ccc3c(O)c(NC(=O)c4ccc(O)c(CC=C(C)C)c4)c(=O)oc3c2C)OC1(C)C",
    "assay_system": "188146-221-R-J1-PDC complex spheroid viability",
    "reading": "95.8%"
  },
  {
    "compound": "CC(C)n1c(=O)n(C)c2cnc3cc(F)c(-c4ccc(OCCCN5CCCCC5)nc4)cc3c21 + COC1C(OC(N)=O)C(O)C(Oc2ccc3c(O)c(NC(=O)c4ccc(O)c(CC=C(C)C)c4)c(=O)oc3c2C)OC1(C)C",
    "assay_system": "188146-221-R-J1-PDC complex spheroid viability",
    "reading": "99.6%"
  },
  {
    "compound": "CCCS(=O)(=O)Nc1ccc(F)c(C(=O)c2c[nH]c3ncc(-c4ccc(Cl)cc4)cc23)c1F + COC1C(OC(N)=O)C(O)C(Oc2ccc3c(O)c(NC(=O)c4ccc(O)c(CC=C(C)C)c4)c(=O)oc3c2C)OC1(C)C",
    "assay_system": "188146-221-R-J1-PDC complex spheroid viability",
    "reading": "100%"
  },
  {
    "compound": "CC[C@@]1(O)C(=O)OCc2c1cc1n(c2=O)Cc2cc3c(CN(C)C)c(O)ccc3nc2-1 + Cc1cccc(N(C)C(=O)C2C(O)CCN2c2nc(C)cc(C(F)(F)F)c2C#N)c1",
    "assay_system": "188146-221-R-J1-PDC complex spheroid viability",
    "reading": "96.5%"
  }
]

----------
viability, T/C for assorted compounds
System: 188146-221-R-J1-PDC complex spheroid viability
measurement_description: Anticancer human tumor 188146-221-R-J1-PDC cell line growth inhibition [POLQ];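 further: spheroids exposed to compounds for seven days; 100% = DMSO vehicle control viability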
measurement_context: second compound 10 µM; first compound 10 µM; hits give low values

[
  {
    "compound": "O=c1[nH]cc(F)c(=O)[nH]1 + Cc1cccc(N(C)C(=O)C2C(O)CCN2c2nc(C)cc(C(F)(F)F)c2C#N)c1",
    "assay_system": "188146-221-R-J1-PDC complex spheroid viability",
    "viability, T/C": "34.4%"
  },
  {
    "compound": "CC(C)n1c(=O)n(C)c2cnc3cc(F)c(-c4ccc(OCCCN5CCCCC5)nc4)cc3c21 + Nc1ccc(C#CCN(C(=O)Cc2ncc(C(F)(F)F)cc2C(F)(F)F)c2ccc(F)cc2)nn1",
    "assay_system": "188146-221-R-J1-PDC complex spheroid viability",
    "viability, T/C": "84.1%"
  },
  {
    "compound": "O=C(Nc1ccc(O)c(NS(=O)(=O)c2ccc(F)cc2)c1)c1ccc(-c2ccccc2)cc1 + Nc1ccc(C#CCN(C(=O)Cc2ncc(C(F)(F)F)cc2C(F)(F)F)c2ccc(F)cc2)nn1",
    "assay_system": "188146-221-R-J1-PDC complex spheroid viability",
    "viability, T/C": "68.6%"
  },
  {
    "compound": "C=CC(=O)N1CCN(c2nc(=O)n(-c3c(C)ccnc3C(C)C)c3nc(-c4c(O)cccc4F)c(F)cc23)C(C)C1 (stereo unspecified) + Nc1ccc(C#CCN(C(=O)Cc2ncc(C(F)(F)F)cc2C(F)(F)F)c2ccc(F)cc2)nn1",
    "assay_system": "188146-221-R-J1-PDC complex spheroid viability",
    "viability, T/C": "96.4%"
  },
  {
    "compound": "COc1cc2cc(C(=O)CCC(=O)O)sc2cc1OC + Cc1cccc(N(C)C(=O)C2C(O)CCN2c2nc(C)cc(C(F)(F)F)c2C#N)c1",
    "assay_system": "188146-221-R-J1-PDC complex spheroid viability",
    "viability, T/C": "103%"
  },
  {
    "compound": "COc1cc2cc(C(=O)CCC(=O)O)sc2cc1OC + Nc1ccc(C#CCN(C(=O)Cc2ncc(C(F)(F)F)cc2C(F)(F)F)c2ccc(F)cc2)nn1",
    "assay_system": "188146-221-R-J1-PDC complex spheroid viability",
    "viability, T/C": "120%"
  }
]
